system: ACHN; assay: NCI tumour cell line growth inhibition, 48 h
Active and inactive are the calls of the source. Rule as the data show it: active = GI50 up to about 1.1 µM and inactive = higher.
Parameter: GI50

Reference set, count: 5
Problem: Which GI50 is listed for COc1ccc(/C=C/C(=O)/C=C/c2ccc(OC)cc2OC)c(OC)c1 ?
Result: 6.61 µM (inactive)

Problem: GI50 for CC(C)(C)[Si](C)(C)OCC1OC(n2ccc(=O)[nH]c2=O)C(O[Si](C)(C)C(C)(C)C)/C1=C/C#N (stereo not given) ?
Result: 5.7 µM (inactive)

Problem: Give the measured GI50 of COc1ccc2oc(=O)c(-c3csc(-c4ccccc4)n3)cc2c1 .
Result: 32 µM (inactive)

Problem: Could you share which GI50 value was measured for COC(=O)[C@@]12CCCC(=O)[C@@H]1[C@H]1CCCC[C@H]12 ?
Result: > 100 µM (inactive)

Problem: What does the record list as GI50 for CC(=O)OCC1=CC2OC(=O)C3=COC(OC4OC(CO)C(O)C(O)C4O)C1C32 (stereo not given) ?
Result: > 100 µM (inactive)

***
Problem: Please give the measured GI50 for this compound: O=C1OC(c2ccc([N+](=O)[O-])cc2)=N/C1=C\c1ccc(Cl)cc1
Result: > 100 µM (inactive)

Problem: Requested field: GI50. Item: CNc1ccc(OC)cc1S(=O)(=O)c1ccccc1[N+](=O)[O-]
Result: > 100 µM (inactive)

Problem: For the compound O=C1OC2(CCCCC2)C(Oc2ccc(Cl)cc2)=C1F , what GI50 is on record?
Result: 45.4 µM (inactive)

Problem: Please look up its GI50: CC(C)C(Sc1nc(-c2ccccc2)c(-c2ccccc2)[nH]1)c1n[nH]c(=S)n1-c1ccccc1 (stereo not given)
Result: 29.6 µM (inactive)

Problem: Fill in: GI50 of COc1cc(C(=O)CBr)c(OC)cc1C is ___
Result: > 100 µM (inactive)

====

test system: MOLT-4; experiment: NCI tumour cell line growth inhibition, 48 h
Activity calls are given as the source filed them. Cut-off read from the data, not from the text of the source: active = GI50 up to about 1.1 µM and inactive = higher.
Parameter call: string, one of active, inactive

// known answers, use as guide
Problem: Field: outcome | Entry: COc1cc2c(cc1OC)[C@H]1CN3CCC[C@H]3C=C1c1ccc(OC)c(O)c1-2
Result: active

Problem: What outcome does the record of this test show for CC1OC(n2cc(F)c(=O)[nH]c2=O)CCC1=O (centres undefined) ?
Result: inactive

Problem: Called result for NCC[Se][Se]CCN
Result: inactive

Problem: Please indicate how the test categorized OC12C3C4CC5C(C4[C@@H]1Br)C2[C@@](O)(c1c(F)c(F)c(F)c(F)c1F)C53 (some centres undefined) .
Result: inactive

Problem: # fetch the recorded call for C[C@]12CC(c3ccccc3O1)C(C(=O)Nc1nc(C34CC5CC(CC(C5)C3)C4)cs1)C(=O)N2 (some centres undefined) here
Result: inactive

Problem: Recorded call for CCOC(=O)c1[nH]c(COC(C)=O)c2c1CCCCCCCCCC2 ?
Result: inactive

Continuing:
Problem: Please let me know the test result on file for CC1CC(c2ccc([N+](=O)[O-])cc2)=Nc2ccccc2[S+]1[O-] (centres undefined) .
Result: inactive

Problem: Recorded call for COc1cc(OC)nc(Nc2c(C#N)c3nc4ccccc4n3c3ccccc23)n1 ?
Result: inactive

Problem: Call for entry Cc1ccc(-c2c(C#N)c(N)[nH]c(=S)c2C#N)cc1 :
Result: inactive
